Where these numbers come from: ChEMBL document CHEMBL2218924

biological target: Serine/threonine-protein kinase TAO2 (Homo sapiens) (UniProt Q9UL54); settings: at 1 µM
Sequence (Q9UL54 whole entry): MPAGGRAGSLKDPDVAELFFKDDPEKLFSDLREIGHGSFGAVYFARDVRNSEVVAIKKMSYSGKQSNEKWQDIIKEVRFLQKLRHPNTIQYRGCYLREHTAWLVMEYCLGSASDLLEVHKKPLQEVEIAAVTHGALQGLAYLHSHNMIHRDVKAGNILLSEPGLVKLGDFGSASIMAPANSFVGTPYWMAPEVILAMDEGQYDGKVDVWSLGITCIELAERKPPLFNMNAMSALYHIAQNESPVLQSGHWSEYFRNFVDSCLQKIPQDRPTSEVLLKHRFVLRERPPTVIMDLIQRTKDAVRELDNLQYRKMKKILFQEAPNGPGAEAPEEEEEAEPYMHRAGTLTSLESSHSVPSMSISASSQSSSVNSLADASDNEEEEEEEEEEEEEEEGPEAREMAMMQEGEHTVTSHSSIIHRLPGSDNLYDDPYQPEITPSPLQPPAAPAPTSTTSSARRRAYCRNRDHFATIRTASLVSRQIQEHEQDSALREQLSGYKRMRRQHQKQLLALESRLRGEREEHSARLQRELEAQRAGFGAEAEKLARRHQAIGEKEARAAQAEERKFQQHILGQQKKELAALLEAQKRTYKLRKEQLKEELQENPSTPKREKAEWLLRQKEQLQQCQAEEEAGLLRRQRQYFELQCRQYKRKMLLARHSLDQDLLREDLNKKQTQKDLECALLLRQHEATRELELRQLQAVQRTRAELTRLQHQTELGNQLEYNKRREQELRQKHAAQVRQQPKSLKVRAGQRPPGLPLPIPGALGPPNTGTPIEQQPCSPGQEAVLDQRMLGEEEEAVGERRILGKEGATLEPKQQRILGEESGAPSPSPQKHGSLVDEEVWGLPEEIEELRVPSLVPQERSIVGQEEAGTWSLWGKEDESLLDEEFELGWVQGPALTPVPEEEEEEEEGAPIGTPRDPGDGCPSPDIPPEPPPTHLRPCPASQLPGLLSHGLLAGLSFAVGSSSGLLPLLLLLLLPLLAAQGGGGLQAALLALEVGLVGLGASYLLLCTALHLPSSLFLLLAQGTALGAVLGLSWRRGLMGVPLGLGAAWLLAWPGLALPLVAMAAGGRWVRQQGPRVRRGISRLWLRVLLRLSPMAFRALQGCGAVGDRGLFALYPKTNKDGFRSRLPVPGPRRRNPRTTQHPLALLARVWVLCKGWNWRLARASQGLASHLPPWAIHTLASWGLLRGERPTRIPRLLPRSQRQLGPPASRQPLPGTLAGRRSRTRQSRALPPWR
Readout kind: residual activity (%)
Kindly answer with a numeric value in %, unit omitted.

Worked examples, 3 molecules total:
{"Structure string": "NC(=O)c1ccc2[nH]c(-c3ccc(Oc4ccc(Cl)cc4)cc3)nc2c1", "residual activity / %": 88}
{"Structure string": "O=C1Nc2cc(Br)ccc2/C1=C1/Nc2ccccc2/C1=N\\O", "residual activity / %": 75}
{"Structure string": "Ic1cccc(CSc2nnc(-c3ccncc3)o2)c1", "residual activity / %": 88}

Record summary for "COc1ccc(S(=O)(=O)N(CCO)c2ccccc2CN(C)C/C=C/c2ccc(Cl)cc2)cc1" : reported residual activity = 105

What the record says about "COc1cccc(-c2cc(=O)c3ccccc3o2)c1N" : residual activity is 112

Consider "O=C1NC(=O)/C(=C\c2ccc3nccnc3c2)S1" . Its measured residual activity is 99

---

biological target: Discoidin domain-containing receptor 2 (Homo sapiens) (UniProt Q16832); details: at 10 µM
Sequence (Q16832 whole entry, the tested form may be a part): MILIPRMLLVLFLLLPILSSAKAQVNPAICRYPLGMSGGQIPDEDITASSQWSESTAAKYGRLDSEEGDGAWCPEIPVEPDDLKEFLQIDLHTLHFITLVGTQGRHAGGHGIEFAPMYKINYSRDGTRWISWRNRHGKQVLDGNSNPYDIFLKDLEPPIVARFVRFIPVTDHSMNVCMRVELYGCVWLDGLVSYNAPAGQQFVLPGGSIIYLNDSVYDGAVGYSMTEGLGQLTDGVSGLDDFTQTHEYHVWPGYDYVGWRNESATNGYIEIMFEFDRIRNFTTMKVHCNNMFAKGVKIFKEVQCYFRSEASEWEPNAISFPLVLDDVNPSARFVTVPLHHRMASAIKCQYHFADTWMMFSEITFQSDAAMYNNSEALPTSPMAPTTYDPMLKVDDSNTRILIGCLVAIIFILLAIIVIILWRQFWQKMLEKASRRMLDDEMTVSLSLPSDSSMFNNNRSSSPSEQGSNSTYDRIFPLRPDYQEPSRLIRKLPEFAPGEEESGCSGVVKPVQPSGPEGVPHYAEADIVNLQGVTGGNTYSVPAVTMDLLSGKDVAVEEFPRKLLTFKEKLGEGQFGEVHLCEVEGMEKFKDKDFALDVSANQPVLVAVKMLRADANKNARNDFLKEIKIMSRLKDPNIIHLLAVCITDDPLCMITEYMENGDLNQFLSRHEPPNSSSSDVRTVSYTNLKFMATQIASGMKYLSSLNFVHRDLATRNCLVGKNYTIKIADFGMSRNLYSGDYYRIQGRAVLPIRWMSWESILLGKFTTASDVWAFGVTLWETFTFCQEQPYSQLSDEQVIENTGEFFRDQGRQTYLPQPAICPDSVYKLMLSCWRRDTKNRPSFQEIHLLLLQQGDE
Readout kind: residual activity (%)
Could you give me the number in %? Just the number is fine.

Known results for molecules:
{"Structure string": "Oc1ccc(Nc2nc(-c3ccc(Cl)cc3)cs2)cc1", "Unit name": "%", "Value reported": 104}
{"Structure string": "Nc1nc(Nc2ccc(S(N)(=O)=O)cc2)nn1C(=S)Nc1c(F)cccc1F", "Unit name": "%", "Value reported": 28}

In plain terms, "Nc1n[nH]c2nnc(-c3c(-c4ccccc4)nn4ccccc34)cc12" has a documented residual activity of 74

Memo: "O=C1NC(=O)/C(=C/c2ccc3c(c2)OC(F)(F)O3)S1" , reported residual activity: 105

Looking up "COc1ccc(S(=O)(=O)N(CCO)c2ccccc2CN(C)C/C=C/c2ccc(Cl)cc2)cc1" , I see its residual activity listed as 97

---

target: Calcium/calmodulin-dependent protein kinase type II subunit gamma (Homo sapiens) (UniProt Q13555); conditions: at 1 µM
Sequence (Q13555 whole entry): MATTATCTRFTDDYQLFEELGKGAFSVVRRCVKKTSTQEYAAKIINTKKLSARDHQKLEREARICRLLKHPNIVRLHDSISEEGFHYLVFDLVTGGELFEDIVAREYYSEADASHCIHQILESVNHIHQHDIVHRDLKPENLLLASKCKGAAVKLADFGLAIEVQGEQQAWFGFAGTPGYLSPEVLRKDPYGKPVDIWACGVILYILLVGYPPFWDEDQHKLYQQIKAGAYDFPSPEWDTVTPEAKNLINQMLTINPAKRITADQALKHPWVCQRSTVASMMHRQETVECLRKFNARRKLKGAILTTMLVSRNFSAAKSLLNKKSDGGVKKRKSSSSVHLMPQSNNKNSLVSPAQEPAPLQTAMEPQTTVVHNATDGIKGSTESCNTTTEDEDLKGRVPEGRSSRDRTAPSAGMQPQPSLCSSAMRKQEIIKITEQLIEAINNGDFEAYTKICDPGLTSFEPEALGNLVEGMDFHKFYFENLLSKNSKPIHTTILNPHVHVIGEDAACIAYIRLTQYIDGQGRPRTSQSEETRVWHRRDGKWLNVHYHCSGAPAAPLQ
In this section we review reported residual activity values for a set of molecules.
# unit: % | format: bare number

Before answering, review these 2 worked examples.
{"Structure string": "CN(C)c1ccc(/C=C2\\C(=O)Nc3ccccc32)cc1", "Unit name": "%", "residual activity": 92}
{"Structure string": "Oc1n[nH]c2nnc(-c3c(-c4ccccc4)nn4ccccc34)cc12", "Unit name": "%", "residual activity": 90}

Record "O=C(O)c1ccc2c3c1cccc3c(=O)n1c3ccccc3nc21" . Reported residual activity: 88

---

Measured residual activity values are reported for all entries that follow.
molecular target: Tyrosine-protein kinase TXK (Homo sapiens); conditions: at 10 µM
State the answer as a number, implicitly in %.

Worked set:
{"Structure string": "CN(C)c1ccc(/C=C2\\C(=O)Nc3ccccc32)cc1", "Readout kind": "residual activity", "Unit name": "%", "Value reported": 69}
{"Structure string": "Nc1ccc2ncnc(NCCc3ccc(Oc4ccccc4)cc3)c2c1", "Readout kind": "residual activity", "Unit name": "%", "Value reported": 61}
{"Structure string": "Nc1n[nH]c2nnc(-c3c(-c4ccccc4)nn4ccccc34)cc12", "Readout kind": "residual activity", "Unit name": "%", "Value reported": 60}

Proceed to the following item.
Quick note, residual activity for "O=C(Nc1cccc(Nc2cc(Nc3cccc(C(F)(F)F)c3)ncn2)c1)C1CC1" landed at 69
